targetOrTestSystem: DRB1*0101 (Homo sapiens, UniProt P01903+P01911, A100R/D57E/F55L/F60I/F76Y/I96L/L162R/M171V/P40L/Q125E/R42F/V115G/Y59C)
Construct: made in house; host or cells: EBV-transformed homozygous human B cell lines, transfected fibroblasts or single-allele 721.221 transfectants
measurementNotes: biochemical
Format: binding
runConditions: IC50 nM to purified HLA DRB1*0101
Recorded measurements of IC50, one per entry

compound: CC[C@H](C)[C@H](NC(=O)CNC(=O)[C@H](CCCNC(=N)N)NC(=O)[C@@H](N)CCC(N)=O)C(=O)N[C@@H](CC(C)C)C(=O)N[C@@H](CCC(=O)O)C(=O)N[C@@H](CC(=O)O)C(=O)N[C@@H](CCC(=O)O)C(=O)N[C@@H](CCC(N)=O)C(=O)N[C@@H](CCSC)C(=O)N[C@@H](Cc1ccc(O)cc1)C(=O)N[C@@H](CCC(N)=O)C(=O)N[C@@H](CCCCN)C(=O)N[C@@H](CS)C(=O)N[C@@H](CS)C(=O)O [Flu.PB1.682]
IC50: 433 nM
//
compound: CC[C@H](C)[C@H](N)C(=O)NCC(=O)N[C@@H](CC(N)=O)C(=O)N[C@@H](CCSC)C(=O)N[C@H](C(=O)N[C@@H](CO)C(=O)N[C@H](C(=O)N[C@@H](Cc1c[nH]c2ccccc12)C(=O)N[C@H](C(=O)N[C@@H](CO)C(=O)N[C@@H](Cc1c[nH]cn1)C(=O)N[C@@H](CO)C(=O)N[C@H](C(=O)N[C@@H](Cc1c[nH]cn1)C(=O)N[C@H](C(=O)NCC(=O)O)[C@@H](C)O)[C@@H](C)CC)C(C)C)[C@@H](C)CC)[C@@H](C)CC [Flu.NA.26]
IC50: 1050 nM
//
compound: CC[C@H](C)[C@H](NC(=O)[C@H](CCCNC(=N)N)NC(=O)[C@H](CCC(=O)O)NC(=O)[C@@H](N)C(C)C)C(=O)N[C@@H](CC(C)C)C(=O)N[C@@H](CCCCN)C(=O)N[C@@H](CCC(=O)O)C(=O)N[C@@H](CCC(=O)O)C(=O)N[C@@H](CO)C(=O)N[C@@H](CC(=O)O)C(=O)N[C@@H](CCC(=O)O)C(=O)N[C@@H](C)C(=O)N[C@@H](CC(C)C)C(=O)N[C@@H](CCCCN)C(=O)N[C@@H](CCSC)C(=O)O [Flu.NS1.68]
IC50: 5190 nM

---

targetOrTestSystem: DRB1*0401 (Homo sapiens, UniProt P01903+P01911, A100K/A169T/F76Y/I96L/K127E/L162R/M171V/N62H/P40V/Q125Y/R42H/S133A/S149N/S66Y/V115G/V209L/W38E)
Construct: made in house; host or cells: EBV-transformed homozygous human B cell lines, transfected fibroblasts or single-allele 721.221 transfectants
measurementNotes: biochemical
Assay type: binding
runConditions: read-out: IC50 nM to purified HLA DRB1*0401

cpdSmiles: CC(C)C[C@H](NC(=O)[C@H](CCCCN)NC(=O)[C@H](CCCNC(=N)N)NC(=O)[C@H](CO)NC(=O)[C@H](CCC(=O)O)NC(=O)[C@H](C)NC(=O)[C@H](CO)NC(=O)[C@H](Cc1ccccc1)NC(=O)CNC(=O)[C@H](CCC(=O)O)NC(=O)[C@@H](N)CC(C)C)C(=O)N[C@@H](CC(C)C)C(=O)N[C@@H](CC(C)C)C(=O)N[C@H](C(=O)N[C@H](C(=O)O)C(C)C)C(C)C
IC50, nM: 861
--
cpdSmiles: CC(C)C[C@H](NC(=O)[C@H](Cc1c[nH]cn1)NC(=O)[C@H](CO)NC(=O)[C@@H](N)CCCNC(=N)N)C(=O)N[C@@H](CCCNC(=N)N)C(=O)N[C@@H](CC(N)=O)C(=O)N[C@@H](CC(=O)O)C(=O)N[C@H](C(=O)N[C@@H](CC(=O)O)C(=O)N[C@H](C(=O)N[C@H](C(=O)N[C@@H](CC(N)=O)C(=O)N[C@@H](Cc1ccccc1)C(=O)N[C@H](C(=O)N[C@@H](CO)C(=O)O)C(C)C)C(C)C)C(C)C)[C@@H](C)O
IC50, nM: 200
--
cpdSmiles: CC[C@H](C)[C@H](NC(=O)[C@H](CCC(=O)O)NC(=O)[C@H](CC(=O)O)NC(=O)[C@H](CC(C)C)NC(=O)[C@H](CCC(=O)O)NC(=O)[C@@H](NC(=O)[C@H](Cc1c[nH]c2ccccc12)NC(=O)[C@@H](NC(=O)[C@@H](N)CO)[C@@H](C)CC)[C@@H](C)CC)C(=O)NCC(=O)N[C@@H](CCC(=O)O)C(=O)N[C@@H](CC(=O)O)C(=O)N[C@H](C(=O)N[C@@H](C)C(=O)N1CCC[C@H]1C(=O)O)C(C)C
IC50, nM: 5400
--
cpdSmiles: CC(C)C[C@H](NC(=O)[C@H](CO)NC(=O)[C@H](CCCNC(=N)N)NC(=O)[C@H](CC(C)C)NC(=O)[C@H](CCC(=O)O)NC(=O)[C@@H]1CCCN1C(=O)[C@H](CCC(=O)O)NC(=O)[C@H](CC(=O)O)NC(=O)[C@H](CO)NC(=O)[C@H](CC(=O)O)NC(=O)[C@H](Cc1ccc(O)cc1)NC(=O)[C@H](CCC(N)=O)NC(=O)[C@H](CCCCN)NC(=O)[C@@H](N)CC(C)C)C(=O)N[C@@H](CO)C(=O)O
IC50, nM: 7260
--
cpdSmiles: CC[C@H](C)[C@H](NC(=O)[C@H](CCCNC(=N)N)NC(=O)[C@H](CCCCN)NC(=O)[C@H](CC(=O)O)NC(=O)[C@H](C)NC(=O)[C@@H](NC(=O)[C@@H](NC(=O)[C@@H]1CCCN1C(=O)[C@H](Cc1ccc(O)cc1)NC(=O)[C@@H](N)CCCCN)[C@@H](C)CC)[C@@H](C)O)C(=O)N[C@@H](CCSC)C(=O)N[C@@H](CCC(=O)O)C(=O)N[C@@H](CCSC)C(=O)N[C@H](C(=O)N1CCC[C@H]1C(=O)O)[C@@H](C)CC
IC50, nM: 9390
--
cpdSmiles: CC[C@H](C)[C@H](NC(=O)[C@H](CCC(=O)O)NC(=O)[C@H](CCC(N)=O)NC(=O)[C@H](CCC(=O)O)NC(=O)[C@@H](NC(=O)[C@H](CCC(=O)O)NC(=O)[C@H](Cc1ccccc1)NC(=O)[C@@H](N)CC(C)C)C(C)C)C(=O)N[C@@H](CCCNC(=N)N)C(=O)N[C@H](C(=O)N[C@@H](Cc1ccccc1)C(=O)N[C@@H](CO)C(=O)N[C@@H](Cc1ccccc1)C(=O)N[C@@H](CCC(N)=O)C(=O)N[C@@H](CC(C)C)C(=O)O)[C@@H](C)O
IC50, nM: 8800
--
cpdSmiles: CC[C@H](C)[C@H](NC(=O)CNC(=O)[C@@H](NC(=O)[C@@H](N)CCSC)[C@@H](C)CC)C(=O)N[C@@H](CC(C)C)C(=O)N1CCC[C@H]1C(=O)N[C@@H](CC(=O)O)C(=O)N[C@@H](CCSC)C(=O)N[C@H](C(=O)N1CCC[C@H]1C(=O)N[C@@H](CO)C(=O)N[C@H](C(=O)N[C@@H](CCC(=O)O)C(=O)N[C@@H](CCSC)C(=O)N[C@@H](CO)C(=O)O)[C@@H](C)O)[C@@H](C)O
IC50, nM: 31
--
cpdSmiles: CC[C@H](C)[C@H](NC(=O)[C@H](Cc1ccc(O)cc1)NC(=O)[C@@H](NC(=O)[C@@H](NC(=O)[C@@H]1CCCN1)[C@@H](C)O)[C@@H](C)O)C(=O)N[C@@H](CO)C(=O)N[C@H](C(=O)NCC(=O)N[C@H](C(=O)N[C@@H](CO)C(=O)N[C@H](C(=O)N[C@@H](CC(C)C)C(=O)N[C@@H](CC(N)=O)C(=O)N[C@@H](CCC(N)=O)C(=O)N[C@@H](CCCNC(=N)N)C(=O)N[C@@H](CC(C)C)C(=O)O)[C@@H](C)O)[C@@H](C)O)C(C)C
IC50, nM: 59
--
cpdSmiles: CC[C@H](C)[C@H](N)C(=O)N[C@@H](CC(C)C)C(=O)N[C@@H](CO)C(=O)N[C@H](C(=O)N[C@@H](Cc1ccc(O)cc1)C(=O)N[C@@H](CO)C(=O)N[C@H](C(=O)N[C@H](C(=O)N[C@@H](C)C(=O)N[C@@H](CO)C(=O)N[C@@H](CO)C(=O)N[C@@H](CC(C)C)C(=O)N[C@@H](C)C(=O)N[C@@H](CC(C)C)C(=O)N[C@@H](C)C(=O)N[C@H](C(=O)O)[C@@H](C)CC)C(C)C)[C@@H](C)O)[C@@H](C)CC
IC50, nM: 91
